# System: mammalian cell line viability, cytotoxicity counter-screen
# ASSAY METHOD TEXT: mammalian cell cytotoxicity, dose response, cytotoxicity control, secondary assay, set 2 (AID 493013)
VALUE TYPE: CC50

query: What does the data say about its CC50? Entry: "COc1ccc2nc(NC(=O)COc3ccc(C)cc3)sc2c1"
result: 29.8 µM

query: CC50 for "Cc1ccccc1OCC(=O)Nc1ccccc1-c1ccccc1" ?
result: 77 µM

query: # lookup: CC50 of "COC(=O)c1c(C)n(-c2ccccc2)c2ccc(O)cc12"
result: 61.3 µM

query: Given "O=C(COc1ccc2c3c(c(=O)oc2c1)CCC3)Nc1nc2ccccc2[nH]1" , state its recorded CC50.
result: 23.4 µM

query: Reported CC50 for "O=C(Nc1nc2ccccc2[nH]1)c1cc2cc(Br)ccc2o1" : what is it?
result: 11.5 µM

query: # get_value(readout='CC50', item= "CCCN1CC(O)=C(c2nc3ccccc3s2)C1=N" )
result: 90.5 µM

query: Give the measured CC50 of "CCOc1ccc2c(c1)c(C(C)=O)c(C)n2-c1ccccc1" .
result: 94.5 µM

query: So what's the measured CC50 for this one? "CCOC(=O)c1cnc2cc(-c3ccc(C(C)(C)C)cc3)nn2c1N"
result: 74.6 µM

----------
# Test system: mammalian cell line viability, cytotoxicity counter-screen
# ASSAY METHOD TEXT: mammalian cell cytotoxicity, dose response, cytotoxicity control, secondary assay, set 2 (AID 493013)
Hi there, I'd appreciate the recorded CC50 for every entry that follows.

query: Would you mind telling me what CC50 value was observed for "CC(C)Cn1c2c(c(O)c(C(=O)Nc3nccs3)c1=O)CCCC2" ?
result: 78 µM

query: Consider the molecule "CCOc1ccc2c(c1)c(C(C)=O)c(C)n2-c1ccccc1Cl" and give its measured CC50.
result: 47.7 µM

query: Bench note: what CC50 did "O=C(Nc1nc2ccccc2[nH]1)c1ccc(Cl)c(Cl)c1" show?
result: 83.6 µM

query: What value of measured CC50 is listed for "Cc1ccc(OCC(=O)Nc2ccc3c4c(cccc24)CC3)c(C)c1" ?
result: 27.2 µM
